tested on: Chlamydomonas reinhardtii, Nile Red lipid fluorescence, 72 h; assay: compounds raising TAG storage in Chlamydomonas – qHTS, Chlamydomonas reinhardtii, dose response (AID 1159536)
Results filed as inconclusive are left out. Active and inactive are the calls of the source. The rule behind the calls is not given here.
Outcome codes: class 1 = active, class 0 = inactive

CCc1cccc(OCC(=O)Nc2cc(OC)c(OC)cc2C(=O)O)c1: class 1
CC(=O)Nc1ccc(S(=O)(=O)Nc2cc([N+](=O)[O-])ccc2C)cc1: class 0
Cc1c(NC(=O)COc2ccc(Br)cc2)cccc1[N+](=O)[O-]: class 0
Brc1ccc2ncnc(N3CCN(Cc4ccccc4)CC3)c2c1: class 1

====

tested on: Chlamydomonas reinhardtii, Nile Red lipid fluorescence, 72 h; experiment: compounds raising TAG storage in Chlamydomonas – qHTS, Chlamydomonas reinhardtii, dose response (AID 1159536)
Records with an inconclusive call do not appear. Active and inactive are the calls of the source. How the calls were made is not given here.
Outcome codes: 1 (active), -1 (inactive)

O=C(Nc1ccccc1C(=O)Nc1ccccc1Cl)c1ccncc1: 1
O=C(O)C1CC=CCC1C(=O)Nc1ccc(F)cc1F (stereo not given): -1
O=[N+]([O-])c1ccc(CN2CCN(Cc3cc(Br)ccc3O)CC2)cc1: 1
O=S(=O)(c1ccc(F)cc1)n1cccc1: -1
CCc1ccc(CN2CCC(C(=O)N(CC)Cc3ccccc3)CC2)cc1: 1

====

system: Chlamydomonas reinhardtii, Nile Red lipid fluorescence, 72 h; assay: compounds raising TAG storage in Chlamydomonas – qHTS, Chlamydomonas reinhardtii, dose response (AID 1159536)
Inconclusive results are not listed. Calls of active or inactive are those of the source. The rule behind the calls is not given here.
Outcome codes: active, inactive

CC(=O)c1nc2cc([N+](=O)[O-])ccc2n1Cc1ccccc1: inactive
COc1cc(CN2CCN(Cc3ccc([N+](=O)[O-])cc3)CC2)cc(OC)c1: active
Cc1ccc(OCC(O)CN(C)C2CCCCC2)cc1C (centres undefined): active
Clc1ccc(OCCOCCN2CCCC2)c(Br)c1: active
O=[N+]([O-])c1ccc(CN2CCN(c3ccccc3)CC2)cc1: active
COc1ccc(OCCCN2CCCCC2)cc1: active
CC(C)NC(=O)c1ccccc1NC(=O)c1ccc(Br)cc1: active
C1=CC2CC1CC2CN1CCN(Cc2ccccc2)CC1 (centres undefined): active
O=C(c1ccc(CN2CCc3ccccc3C2)cc1)N1CCN(c2ccccc2F)CC1: active
O=C(Nc1ccc([N+](=O)[O-])cc1)c1cccc(Cl)c1Cl: inactive
CN1CCC(N(C)Cc2cc(Cl)ccc2O)CC1: active
C=CCc1ccccc1OCC(O)CN(C)C1CCCCC1 (centres undefined): active
O=C(CN1CCCCC1)NC12CC3CC(CC(C3)C1)C2: active
Cc1cc(C=O)c(C)n1-c1ccc(Br)cc1F: inactive
Cc1cc(OCCN2CCN(C)CC2)ccc1C(C)C: active
COc1ccc(C(=O)Nc2sc3c(c2C(N)=O)CCC(C)C3)c(OC)c1 (centres undefined): inactive
COc1ccccc1N1CCN(C2CCN(CC3CC4C=CC3C4)CC2)CC1 (centres undefined): active
c1cc2c(cc1CNC1CCCC1)OCO2: active
Clc1ccc(CN2CCCCCC2)cc1: active
COc1ccc(CN2CCN(C/C=C/c3ccccc3)CC2)cc1: active
O=C(Nc1ccc([N+](=O)[O-])cc1)c1c(F)c(F)c(F)c(F)c1F: inactive
CCOc1ccc(CN2CCN(c3ccc(F)cc3)CC2)cc1: active
Cc1cc(OCCCCN2CCN(C)CC2)cc(C(C)C)c1: active
Cc1cc(Cl)cc(C)c1OCCn1ccnc1: active
CN1CCCN(Cc2cccc(Oc3ccccc3)c2)CC1: active
Cc1ccc(C(=O)NC(C)C2CC3CCC2C3)s1 (centres undefined): inactive
O=C1C2C3CCC(C3)C2C(=O)N1c1nccs1 (centres undefined): inactive
CC1CN(CC(O)COc2ccc(C(C)(C)C)cc2)CC(C)O1 (centres undefined): active
Cc1c(C(=O)Nc2ccc(F)c(F)c2)cccc1[N+](=O)[O-]: inactive
